Target Desc: L7Ae (Archaeoglobus fulgidus (printed A. …, UniProt O29494 1-119))
Sequence (O29494 whole entry): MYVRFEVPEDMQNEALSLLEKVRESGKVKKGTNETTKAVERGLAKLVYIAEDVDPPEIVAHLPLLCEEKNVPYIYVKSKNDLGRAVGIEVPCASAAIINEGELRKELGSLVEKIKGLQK
Test Summary: SPR; SPR: 10 mM HEPES pH 7.4, 150 mM NaCl, 1 mM MgCl2, 0.05% P20, 0.25 mM TCEP, 0.1 mg/ml BSA, 25 ug/ml yeast tRNA, 25 C; EMSA: 10 mM HEPES-KOH pH 7.5, 140 mM KCl, 10 mM NaCl, 1 mM MgCl2, 0.1 mM TCEP, 0.01% Tween-20, 10 ug/ml yeast tRNA (1x of the printed 5x buffer)
Test Context: protein: recombinant; tags: N-term Twin-Strep-tag; C-term 6xHis; hairpin with kink-turn
Measurement Label: pKd
Friendly reminder that pKd comes from taking -log10 of the concentration in mol/L.

Exam item: Can you look up the measured pKd of Box C/D Kt (Kt_SPR) (structured_RNA) RNA: GGAUCGCGUGAUCCGAAAGGUGACGAUCCAAAUCGACGAAAGACACAGAACG for me?
Marked response: 10.67

Recorded values, source paper PMC8789040.
